# Assay info: Volume of distribution at steady state in CD1 mouse at 2 mg/kg, iv by LC-MS/MS analysis
# Format: ADME, organism-based
# Parameters: dose 2 mg/kg, route intravenous
# Condition description: in vivo, read-out: Vdss
Readout name: Vd (L/kg)
The response must be a number in L/kg with no trailing unit.

What value of Vd has been recorded for this entry: "Cc1cccc(CC(=O)N2CCc3c2ccc(-c2cn(C)c4ncnc(N)c24)c3F)n1"
0.72

* * *

# Assay info: Half life in Sprague-Dawley rat at 2.2 mg/kg, iv by LC-MS/MS analysis
# Assay type: ADME, organism-based
# Set-up: dose 2.2 mg/kg, route intravenous
# Condition description: in vivo
Readout name: half-life

What value of half-life has been recorded for this entry: "Cc1cccc(CC(=O)N2CCc3c2ccc(-c2cn(C)c4ncnc(N)c24)c3F)n1"
1.4 h

* * *

Listed below: IC50 values for each entry.
# Study target: Cytochrome P450 2D6 (Homo sapiens, UniProt P10635)
# Sequence (P10635 whole entry): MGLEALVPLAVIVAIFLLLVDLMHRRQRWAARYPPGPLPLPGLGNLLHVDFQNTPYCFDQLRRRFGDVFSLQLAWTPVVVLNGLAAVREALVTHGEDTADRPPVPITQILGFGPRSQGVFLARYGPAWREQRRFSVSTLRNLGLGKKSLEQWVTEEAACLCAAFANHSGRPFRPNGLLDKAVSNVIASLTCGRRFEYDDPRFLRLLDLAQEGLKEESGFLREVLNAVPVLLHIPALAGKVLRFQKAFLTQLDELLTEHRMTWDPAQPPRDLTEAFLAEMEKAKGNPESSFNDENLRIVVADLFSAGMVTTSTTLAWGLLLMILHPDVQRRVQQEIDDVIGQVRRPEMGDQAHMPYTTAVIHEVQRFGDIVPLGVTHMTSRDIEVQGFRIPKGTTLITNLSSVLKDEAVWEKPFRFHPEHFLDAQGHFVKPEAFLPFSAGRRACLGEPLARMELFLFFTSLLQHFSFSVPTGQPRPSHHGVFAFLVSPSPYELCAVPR
# Assay info: Inhibition of CYP2D6 in human liver microsomes using bufuralol as substrate after 5 to 60 mins by LC-MS/MS analysis
# Assay type: ADME, Microsome

In [3]: df
Out[3]:
                                     smiles  reported_value
0  Cn1cc(-c2ccc3c(c2F)CCN3C(=O)Cc2cccc(C(F)(F)F)n2)c2c(N)ncnc21         23.7 µM
1  Cc1cc(C)n(CC(=O)N2CCc3c2ccc(-c2cn(C)c4ncnc(N)c24)c3F)n1         > 25 µM

Let us examine a further case.
What value of IC50 has been recorded for this entry: "Cc1cccc(CC(=O)N2CCc3c2ccc(-c2cn(C)c4ncnc(N)c24)c3F)n1"
> 25 µM

* * *

# Assay info: AUC (0 to infinity) in beagle dog at 2.9 mg/kg, iv by LC-MS/MS analysis
# Format: ADME, organism-based, Canis lupus familiaris
# Set-up: time infinity, dose 2.9 mg/kg, route intravenous
# Condition description: plasma
Readout name: AUC(0-inf)
The answer should read as a number with its unit following.

What value of AUC(0-inf) has been recorded for this entry: "Cc1cccc(CC(=O)N2CCc3c2ccc(-c2cn(C)c4ncnc(N)c24)c3F)n1"
3130 ng·h/mL

* * *

# Assay info: Volume of distribution at steady state in beagle dog at 2.9 mg/kg, iv by LC-MS/MS analysis
# Type: ADME, organism-based, Canis lupus familiaris
# Design: dose 2.9 mg/kg, route intravenous
# Condition description: in vivo, read-out: Vdss
Readout name: Vd (L/kg)
The response must be a number in L/kg with no trailing unit.

What value of Vd has been recorded for this entry: "Cc1cccc(CC(=O)N2CCc3c2ccc(-c2cn(C)c4ncnc(N)c24)c3F)n1"
2.8

* * *

# Assay info: AUC (0 to infinity) in beagle dog at 5.2 mg/kg, po by LC-MS/MS analysis
# Type: ADME, organism-based, Canis lupus familiaris
# Parameters: time infinity, dose 5.2 mg/kg, route oral
# Condition description: plasma
Readout name: AUC(0-inf) (ng·h/mL)
The response must be a number in ng·h/mL with no trailing unit.

What value of AUC(0-inf) has been recorded for this entry: "Cc1cccc(CC(=O)N2CCc3c2ccc(-c2cn(C)c4ncnc(N)c24)c3F)n1"
6210

* * *

# Assay info: Blood clearance in CD1 mouse at 2 mg/kg, iv by LC-MS/MS analysis
# Assay type: ADME, organism-based
# Set-up: dose 2 mg/kg, route intravenous
# Condition description: whole blood
Readout name: clearance (mL/min/kg)
The response must be a number in mL/min/kg with no trailing unit.

What value of clearance has been recorded for this entry: "Cc1cccc(CC(=O)N2CCc3c2ccc(-c2cn(C)c4ncnc(N)c24)c3F)n1"
10.5

* * *

# Assay info: Blood clearance in Sprague-Dawley rat at 2.2 mg/kg, iv by LC-MS/MS analysis
# Format: ADME, organism-based
# Set-up: dose 2.2 mg/kg, route intravenous
# Condition description: whole blood
Readout name: clearance (mL/min/kg)
The response must be a number in mL/min/kg with no trailing unit.

                                     smiles  reported_value
0  Cc1cccc(CC(=O)N2CCc3c2ccc(-c2cn(C)c4ncnc(N)c24)c3F)n1             9.5

Let us examine a further case.
What value of clearance has been recorded for this entry: "Cn1cc(-c2ccc3c(c2)CCN3C(=O)Cc2cccc(C(F)(F)F)c2)c2c(N)ncnc21"
21.5

* * *

# Assay info: Blood clearance in Sprague-Dawley rat at 2.2 mg/kg, iv by LC-MS/MS analysis
# Type: ADME, organism-based
# Parameters: dose 2.2 mg/kg, route intravenous
# Condition description: whole blood
Listed below: clearance values for each entry.

>>> print(df.to_string())
                                     smiles  reported_value
0  Cc1cccc(CC(=O)N2CCc3cc(-c4cn(C)c5ncnc(N)c45)ccc32)n1  10.5 mL/min/kg

What value of clearance has been recorded for this entry: "Cn1cc(-c2ccc3c(c2)CCN3C(=O)Cc2cccc(C(F)(F)F)n2)c2c(N)ncnc21"
12.8 mL/min/kg

What do you have for "Cn1cc(-c2ccc3c(c2F)CCN3C(=O)Cc2cccc(C(F)(F)F)n2)c2c(N)ncnc21" ?
8.9 mL/min/kg

What do you have for "Cc1cc(C)n(CC(=O)N2CCc3c2ccc(-c2cn(C)c4ncnc(N)c24)c3F)n1" ?
1.9 mL/min/kg

What do you have for "Cc1cc(C)n(CC(=O)N2CCc3cc(-c4cn(C)c5ncnc(N)c45)ccc32)n1" ?
2.8 mL/min/kg
